tested on: U937 human leukemic monocyte lymphoma cell line; experiment: Antiproliferative activity to U937 human leukemic monocyte lymphoma cell line; assay type: cell-based; conditions: U-937; U937 human leukemic monocyte lymphoma cell line; read-out: U937 (GI50, Unit: μM)
Just a reminder that ties go to Not satisfied: only GI50 strictly below 10 µM counts as Satisfied.

[[record]]
molecule = "COc1ccc(-c2ccc(C(=O)Nc3cccc(C(=O)c4nccn4-c4ccnc(NC[C@H](C)O)n4)c3)o2)cc1 [Example 26]"
assigned_category = "Satisfied"


# input Determine whether this molecule shows GI50 lower than 10 µM (ties excluded): C[C@H](O)CNc1nccc(-n2ccnc2Cc2cccc(NC(=O)c3ccc4[nH]nnc4c3)c2)n1 [Example 9]
# output Not satisfied

# input Determine whether this molecule shows GI50 lower than 10 µM (ties excluded): C[C@H](O)CNc1nccc(-n2ccnc2Cc2cccc(NC(=O)c3ccc(Cl)cc3)c2)n1 [Example 6]
# output Not satisfied

# input Determine whether this molecule shows GI50 lower than 10 µM (ties excluded): C[C@H](O)CNc1nccc(-n2ccnc2Cc2cccc(NC(=O)Nc3ccc(C(F)(F)F)c(Cl)c3)c2)n1 [Example 23]
# output Satisfied

# input Determine whether this molecule shows GI50 lower than 10 µM (ties excluded): C[C@H](O)CNc1nccc(-n2ccnc2C(=O)c2ccc(NC(=O)Nc3ccc(Cl)c(Cl)c3)cc2)n1 [Example 39]
# output Not satisfied
